Reference source for all entries: ChEMBL document CHEMBL1148762

System: Fusarium oxysporum
Assay: Antimicrobial activity against Fusarium oxysporum at 30 uM after 48 hrs by microtiter assay
Type: functional
This section presents compounds with their documented inhibition at 30 µM values.
I'd appreciate it if you wrote the number followed by its unit.

C/C=C1\NC(=O)[C@H](Cc2ccccc2)NC(=O)[C@@H](C(C)C)NC(=O)[C@@H]([C@@H](C)CC)NC(=O)[C@H](NC(=O)[C@H](NC(=O)[C@H](CCCNC(=O)c2cc3ccc(N(CC)CC)cc3oc2=O)NC(=O)[C@H]2CCCN2C(=O)[C@H](NC(=O)[C@@H](NC(=O)[C@@H](NC(=O)[C@H](NC(=O)CCCC(C)C)C(C)C)[C@@H](C)O)C(C)C)C(C)C)[C@@H](C)CC)[C@@H](C)OC(=O)[C@H](C(C)C)NC1=O
0%

--- query ---
Data request: Please look up its inhibition at 30 µM: C/C=C1\NC(=O)[C@H](Cc2ccccc2)NC(=O)[C@@H](C(C)C)NC(=O)[C@@H]([C@@H](C)CC)NC(=O)[C@H](NC(=O)[C@H](NC(=O)[C@H](CCCN)NC(=O)[C@H]2CCCN2C(=O)[C@@H](NC(=O)[C@H](NC(=O)[C@H](NC(=O)[C@@H](NC(=O)CCCC(C)C)C(C)C)[C@H](C)OC(C)=O)C(C)C)C(C)C)[C@@H](C)CC)[C@@H](C)OC(=O)[C@H](C(C)C)NC1=O
Data returned: 78.5%

* * *

System: Fusarium oxysporum
Test: Antimicrobial activity against Fusarium oxysporum at 30 uM after 72 hrs by microtiter assay
Format: functional
assayEndpoint: inhibition at 30 µM (%)
Report as a plain number; the unit % is understood.

C/C=C1\NC(=O)[C@H](Cc2ccccc2)NC(=O)[C@@H](C(C)C)NC(=O)[C@@H]([C@@H](C)CC)NC(=O)[C@H](NC(=O)[C@H](NC(=O)[C@H](CCCNC(=O)c2cc3ccc(N(CC)CC)cc3oc2=O)NC(=O)[C@H]2CCCN2C(=O)[C@H](NC(=O)[C@@H](NC(=O)[C@@H](NC(=O)[C@H](NC(=O)CCCC(C)C)C(C)C)[C@@H](C)O)C(C)C)C(C)C)[C@@H](C)CC)[C@@H](C)OC(=O)[C@H](C(C)C)NC1=O
0
C/C=C1\NC(=O)[C@H](Cc2ccccc2)NC(=O)[C@@H](C(C)C)NC(=O)[C@@H]([C@@H](C)CC)NC(=O)[C@H](NC(=O)[C@H](NC(=O)[C@H](CCCNCc2ccc(F)cc2)NC(=O)[C@H]2CCCN2C(=O)[C@H](NC(=O)[C@@H](NC(=O)[C@@H](NC(=O)[C@H](NC(=O)CCCC(C)C)C(C)C)[C@@H](C)O)C(C)C)C(C)C)[C@@H](C)CC)[C@@H](C)OC(=O)[C@H](C(C)C)NC1=O
94.3
CO/C=C(/C(=O)OC)c1ccccc1Oc1cc(Oc2ccccc2C#N)ncn1
32.9
C/C=C1\NC(=O)[C@H](Cc2ccccc2)NC(=O)[C@@H](C(C)C)NC(=O)[C@@H]([C@@H](C)CC)NC(=O)[C@H](NC(=O)[C@H](NC(=O)[C@H](CCCN)NC(=O)[C@H]2CCCN2C(=O)[C@@H](NC(=O)[C@H](NC(=O)[C@H](NC(=O)[C@@H](NC(=O)CCCC(C)C)C(C)C)[C@H](C)OC(C)=O)C(C)C)C(C)C)[C@@H](C)CC)[C@@H](C)OC(=O)[C@H](C(C)C)NC1=O
74.4

Data request: Please look up its inhibition at 30 µM: C/C=C1\NC(=O)[C@H](Cc2ccccc2)NC(=O)[C@@H](C(C)C)NC(=O)[C@@H]([C@@H](C)CC)NC(=O)[C@H](NC(=O)[C@H](NC(=O)[C@H](CCCNCc2cccs2)NC(=O)[C@H]2CCCN2C(=O)[C@H](NC(=O)[C@@H](NC(=O)[C@@H](NC(=O)[C@H](NC(=O)CCCC(C)C)C(C)C)[C@@H](C)O)C(C)C)C(C)C)[C@@H](C)CC)[C@@H](C)OC(=O)[C@H](C(C)C)NC1=O
Data returned: 99.2
